Reference for the values: patent US20040034045A1

Test system: thrombin-induced platelet aggregation
procedure details: Thrombin-induced platelet aggregation (platelet aggregometer)
Type: cell-based, human
condition description: Platelet; human platelets, pretreatment 30 minutes, thrombin 0.1 U/mL, average; read-out: IC50, inhibition of thrombin-induced platelet aggregation
pIC50: −log10 of the molar value.
quantity kind: pIC50

[[record]]
chemical_string = "COc1cc2ncnc(Nc3ccc(O)cc3)c2cc1OC"
quantity_kind = "pIC50"
endpoint_result = 5.82

